- Tested on: human breast cancer MCF-7
- Protocol summary: MTT antiproliferative assay, MCF-7
- Assay type: cell-based
- Recorded conditions: 48 h, mean ± SD, three independent experiments
Endpoint label: IC50 (µM)
# value in µM; strip the unit string

Sample answers from the record:
compound="C=C(C)C1CCC2(C)CCC3(C)C(CCC4C5(C)CCC(OC(=O)CN6C(=O)SC(=Cc7ccc(C(C)(C)C)cc7)C6=O)C(C)(C)C5CCC43C)C12 (stereo not drawn)" data_value=15.4
compound="C=C(C)C1CCC2(C)CCC3(C)C(CCC4C5(C)CCC(OC(=O)N6CCN(C(=O)CN7C(=O)SC(=CC(C)C)C7=O)CC6)C(C)(C)C5CCC43C)C12 (stereo not drawn)" data_value=20.1
compound="C=C(C)C1CCC2(C)CCC3(C)C(CCC4C5(C)CCC(OC(=O)N6CCN(C(=O)CN7C(=O)SC(=Cc8ccc(Cl)cc8)C7=O)CC6)C(C)(C)C5CCC43C)C12 (stereo not drawn)" data_value=14
compound="C=C(C)C1CCC2(C)CCC3(C)C(CCC4C5(C)CCC(OC(=O)CN6C(=O)SC(=Cc7ccc(Cl)cc7)C6=O)C(C)(C)C5CCC43C)C12 (stereo not drawn)" data_value=13.8
compound="C=C(C)C1CCC2(C)CCC3(C)C(CCC4C5(C)CCC(OC(=O)CN6C(=O)SC(=Cc7ccco7)C6=O)C(C)(C)C5CCC43C)C12 (stereo not drawn)" data_value=12.8

// query Bench note: what IC50 did C=C(C)C1CCC2(C)CCC3(C)C(CCC4C5(C)CCC(OC(=O)N6CCN(C(=O)CN7C(=O)SC(=Cc8ccc(C(C)(C)C)cc8)C7=O)CC6)C(C)(C)C5CCC43C)C12 (stereo not drawn) show?
// result 18.1

----------
- Test system: human breast cancer MCF-7
- Protocol summary: MTT antiproliferative assay, MCF-7
- Type: cell-based
- Recorded conditions: 48 h, mean ± SD, three independent experiments
Threshold 20 µM. IC50 below it: 1. IC50 at it or above: 0.

Illustrative cases are given below, each with its answer.
molecule="C=C(C)C1CCC2(C)CCC3(C)C(CCC4C5(C)CCC(OC(=O)CN6C(=O)SC(=Cc7ccc(OC)c(OC)c7OC)C6=O)C(C)(C)C5CCC43C)C12 (stereo not drawn)" study_target="human breast cancer MCF-7" assigned_class=1
molecule="C=C(C)C1CCC2(C)CCC3(C)C(CCC4C5(C)CCC(OC(=O)NCCNC(=O)CN6C(=O)SC(=Cc7ccccc7OC)C6=O)C(C)(C)C5CCC43C)C12 (stereo not drawn) [Compound 12e]" study_target="human breast cancer MCF-7" assigned_class=1
molecule="C=C(C)C1CCC2(C)CCC3(C)C(CCC4C5(C)CCC(OC(=O)N6CCN(C(=O)CN7C(=O)SC(=Cc8ccco8)C7=O)CC6)C(C)(C)C5CCC43C)C12 (stereo not drawn)" study_target="human breast cancer MCF-7" assigned_class=1

// query Hello, is IC50 of the following molecule strictly smaller than 20 µM? C=C(C)C1CCC2(C)CCC3(C)C(CCC4C5(C)CCC(OC(=O)CN6C(=O)SC(=Cc7ccc(F)cc7)C6=O)C(C)(C)C5CCC43C)C12 (stereo not drawn)
// result 0

// query A record lists C=C(C)C1CCC2(C)CCC3(C)C(CCC4C5(C)CCC(OC(=O)NCCNC(=O)CN6C(=O)SC(=Cc7ccc(F)cc7)C6=O)C(C)(C)C5CCC43C)C12 (stereo not drawn) [Compound 12a] . Is its IC50 below 20 µM?
// result 1

// query Just wondering, is IC50 of C=C(C)C1CCC2(C)CCC3(C)C(CCC4C5(C)CCC(OC(=O)N6CCN(C(=O)CN7C(=O)SC(=Cc8ccccc8OC)C7=O)CC6)C(C)(C)C5CCC43C)C12 (stereo not drawn) below 20 µM?
// result 1

----------
- System: human breast cancer MCF-7
- Protocol summary: MTT antiproliferative assay, MCF-7
- Type: cell-based
- Recorded conditions: 48 h, mean ± SD, three independent experiments
Endpoint label: pIC50
Notebook: values listed as pIC50 are -log10 of the concentration (mol/L).

// query Entry under review: C=C(C)C1CCC2(C)CCC3(C)C(CCC4C5(C)CCC(OC(=O)N6CCN(C(=O)CN7C(=O)SC(=Cc8cccs8)C7=O)CC6)C(C)(C)C5CCC43C)C12 (centres unmarked) [Compound 9h] . Reported pIC50?
// result 4.86

----------
- Tested on: human hepatocarcinoma HepG2
- Protocol summary: MTT antiproliferative assay, HepG2
- Format: cell-based
- Recorded conditions: Homo sapiens, HepG2; MTT, 48 h, mean ± SD, three independent experiments
Endpoint label: IC50 (µM)
Express your answer in µM, writing the number without its unit.

// query Report IC50 for C=C(C)[C@@H]1CC[C@]2(C)CC[C@]3(C)[C@H](CC[C@@H]4[C@@]5(C)CC[C@H](O)C(C)(C)[C@@H]5CC[C@]43C)[C@@H]12 tested on human hepatocarcinoma HepG2.
// result 43.6

----------
- Test system: human breast cancer MCF-7
- Protocol summary: MTT antiproliferative assay, MCF-7
- Type: cell-based
- Recorded conditions: Homo sapiens, MCF7, 48 h, mean ± SD, three independent experiments
Endpoint label: pIC50
Scale explanation: pIC50 corresponds to minus log10 of a concentration expressed in moles per litre.

// query What pIC50 value was documented for this molecule, C=C(C)[C@@H]1CC[C@]2(C)CC[C@]3(C)[C@H](CC[C@@H]4[C@@]5(C)CC[C@H](O)C(C)(C)[C@@H]5CC[C@]43C)[C@@H]12 ?
// result 4.21

----------
- System: human breast cancer MCF-7
- Protocol summary: MTT antiproliferative assay, MCF-7
- Format: cell-based
- Recorded conditions: 48 h, mean ± SD, three independent experiments
Listed compounds paired with reported IC50
Number in µM, nothing else.

Consider the reported IC50 for these compounds:
compound="C=C(C)C1CCC2(C)CCC3(C)C(CCC4C5(C)CCC(OC(=O)N6CCN(C(=O)CN7C(=O)SC(=Cc8ccc(OC)c(OC)c8OC)C7=O)CC6)C(C)(C)C5CCC43C)C12 (centres unmarked)" data_value=9.19
compound="C=C(C)C1CCC2(C)CCC3(C)C(CCC4C5(C)CCC(OC(=O)CN6C(=O)SC(=CC(C)C)C6=O)C(C)(C)C5CCC43C)C12 (centres unmarked)" data_value=8.7
compound="C=C(C)C1CCC2(C)CCC3(C)C(CCC4C5(C)CCC(OC(=O)NCCNC(=O)CN6C(=O)SC(=Cc7ccco7)C6=O)C(C)(C)C5CCC43C)C12 (centres unmarked) [Compound 12g]" data_value=16.4

// query I would be grateful if you could share the reported IC50 for C=C(C)C1CCC2(C)CCC3(C)C(CCC4C5(C)CCC(OC(=O)NCCNC(=O)CN6C(=O)SC(=Cc7ccc(OC)c(OC)c7OC)C6=O)C(C)(C)C5CCC43C)C12 (centres unmarked) [Compound 12f] .
// result 10

// query # lookup: IC50 of C=C(C)C1CCC2(C)CCC3(C)C(CCC4C5(C)CCC(OC(=O)N6CCN(C(=O)CN7C(=O)SC(=Cc8ccc(C)cc8)C7=O)CC6)C(C)(C)C5CCC43C)C12 (centres unmarked)
// result 16.3

// query Reported IC50, compound C=C(C)C1CCC2(C)CCC3(C)C(CCC4C5(C)CCC(OC(=O)NCCNC(=O)CN6C(=O)SC(=CC(C)C)C6=O)C(C)(C)C5CCC43C)C12 (centres unmarked) [Compound 12i] : ____
// result 8.74

// query Item N.N.[Cl][Pt][Cl] [Cisplatin, cisplatin, reference compound] has what recorded IC50?
// result 5.79

// query # IC50 lookup, item C=C(C)C1CCC2(C)CCC3(C)C(CCC4C5(C)CCC(OC(=O)NCCNC(=O)CN6C(=O)SC(=Cc7ccc(C(C)(C)C)cc7)C6=O)C(C)(C)C5CCC43C)C12 (centres unmarked) [Compound 12d]
// result 9.12

----------
- Test system: human breast cancer MCF-7
- Protocol summary: MTT antiproliferative assay, MCF-7
- Assay type: cell-based
- Recorded conditions: 48 h, mean ± SD, three independent experiments
Endpoint label: IC50 (µM)
Write the number in µM without appending the unit.

molecule="C=C(C)C1CCC2(C)CCC3(C)C(CCC4C5(C)CCC(OC(=O)CN6C(=O)SC(=Cc7ccccc7OC)C6=O)C(C)(C)C5CCC43C)C12 (stereo not drawn)" unit_spec=µM data_value=12.5
molecule="C=C(C)C1CCC2(C)CCC3(C)C(CCC4C5(C)CCC(OC(=O)NCCNC(=O)CN6C(=O)SC(=Cc7cccs7)C6=O)C(C)(C)C5CCC43C)C12 (stereo not drawn) [Compound 12h]" unit_spec=µM data_value=17.3

Please turn your attention to the following entry.
// query Value wanted: IC50 (human breast cancer MCF-7) of entry C=C(C)C1CCC2(C)CCC3(C)C(CCC4C5(C)CCC(OC(=O)CN6C(=O)SC(=Cc7cccs7)C6=O)C(C)(C)C5CCC43C)C12 (stereo not drawn)
// result 11.3

Data origin, for the record: paper PMC11510666
